Source of measurements: patent US20020160932A1

# System: PRV
# assayExplanation: cells
# Format: cell-based, porcine (PRV)
# measurementConditions: Sus scrofa, read-out: IC50 porcine PRV
pIC50: −log10 of the molar value.

{"columns": ["inputSmiles", "pIC50"],
 "data": [
  ["Cc1nc(N(C)C(=O)Cc2ccc(-c3ccccn3)cc2)sc1S(N)(=O)=O", 5.30]
]}

====

In this section, each of the compounds is paired with its reported IC50.
# Tested on: HSV-2 G
# assayExplanation: in vitro viral replication assay, human HSV-2 G
# Format: cell-based, herpes simplex virus 2
# measurementConditions: Human alphaherpesvirus 2; in vitro viral replication assay

{"columns": ["compound", "valueUnit", "IC50"],
 "data": [
  ["Nc1nc2c(ncn2COCCO)c(=O)[nH]1 [Acyclovir, acyclovir, reference compound]", "µM", 4],
  ["Cc1nc(N(C)C(=O)Cc2ccc(-c3ccccn3)cc2)sc1S(N)(=O)=O", "µM", 0.02]
]}
